Numbers sourced from ChEMBL document CHEMBL5625247.

measuredOn: Histone deacetylase 1 (Homo sapiens)
Sequence (Q13547 whole entry): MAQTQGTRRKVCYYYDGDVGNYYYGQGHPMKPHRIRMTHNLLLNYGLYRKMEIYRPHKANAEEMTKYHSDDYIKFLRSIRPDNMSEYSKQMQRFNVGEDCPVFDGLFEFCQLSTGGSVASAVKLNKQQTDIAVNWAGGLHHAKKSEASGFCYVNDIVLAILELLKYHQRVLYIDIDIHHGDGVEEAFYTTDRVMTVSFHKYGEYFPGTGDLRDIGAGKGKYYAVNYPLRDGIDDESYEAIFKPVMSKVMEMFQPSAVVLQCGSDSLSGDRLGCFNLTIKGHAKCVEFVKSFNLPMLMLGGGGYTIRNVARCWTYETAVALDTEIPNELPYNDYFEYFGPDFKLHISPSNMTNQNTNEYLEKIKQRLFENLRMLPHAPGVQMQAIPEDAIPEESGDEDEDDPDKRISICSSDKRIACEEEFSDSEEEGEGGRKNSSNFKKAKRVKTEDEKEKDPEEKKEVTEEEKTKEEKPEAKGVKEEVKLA
methodDescription: Inhibition of HDAC1 (unknown origin) expressed in baculovirus infected in Sf9 cells using RHKKAc as substrate preincubated for 5 to 10 mins followed by substrate addition measured after 2 hrs by fluorescence based assay
Recorded IC50 values for a group of compounds are listed next.

smilesCode	unitsText	IC50
O=C(NO)c1ccc(CNC(=O)[C@H]2Cc3c([nH]c4ccccc34)[C@H](C3CC3)N2)cc1	nM	38
O=C(NO)c1ccc(CNC(=O)[C@H]2Cc3c([nH]c4ccccc34)[C@H](c3ccc(Cl)cc3)N2)cc1	nM	61.6
O=C(NO)c1ccc(CNC(=O)[C@H]2Cc3c([nH]c4ccccc34)[C@H](c3ccccc3)N2)cc1	nM	42.3
O=C(NO)c1ccc(CNC(=O)[C@H]2Cc3c([nH]c4ccccc34)[C@H](C3CCCC3)N2)cc1	nM	40.5

* * *

measuredOn: Polyamine deacetylase HDAC10 (Homo sapiens, UniProt Q969S8)
Sequence (Q969S8 whole entry): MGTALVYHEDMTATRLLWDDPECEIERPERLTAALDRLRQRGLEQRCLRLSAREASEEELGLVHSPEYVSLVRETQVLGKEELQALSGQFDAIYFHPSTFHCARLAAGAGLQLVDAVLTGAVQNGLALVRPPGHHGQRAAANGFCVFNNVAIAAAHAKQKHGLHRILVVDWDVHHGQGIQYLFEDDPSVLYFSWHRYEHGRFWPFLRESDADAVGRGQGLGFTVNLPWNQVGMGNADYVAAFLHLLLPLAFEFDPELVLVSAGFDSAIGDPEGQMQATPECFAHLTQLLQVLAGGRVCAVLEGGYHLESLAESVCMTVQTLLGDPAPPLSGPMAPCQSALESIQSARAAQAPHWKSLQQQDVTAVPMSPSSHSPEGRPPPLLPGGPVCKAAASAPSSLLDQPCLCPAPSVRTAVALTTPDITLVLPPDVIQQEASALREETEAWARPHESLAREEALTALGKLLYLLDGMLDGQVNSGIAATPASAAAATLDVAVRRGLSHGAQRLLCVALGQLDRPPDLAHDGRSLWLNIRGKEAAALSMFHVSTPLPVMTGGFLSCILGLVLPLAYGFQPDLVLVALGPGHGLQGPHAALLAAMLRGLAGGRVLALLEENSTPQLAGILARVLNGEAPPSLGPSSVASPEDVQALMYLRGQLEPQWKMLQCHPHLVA
methodDescription: Inhibition of HDAC10 (unknown origin) TR-FRET assay

smilesCode	IC50 [nM]
O=C(NO)c1ccc(CNC(=O)[C@H]2Cc3c([nH]c4ccccc34)[C@H](c3ccc(Cl)cc3)N2)cc1	496

* * *

methodDescription: Clearance in Sprague-Dawley rat at 0.2 mg/kg, iv by LC-MS/MS analysis
Assay type: ADME, organism-based
particulars: in vivo
valueType: clearance (mL/min/kg)

smilesCode	unitsText	observedMeasurement
O=C(NO)c1ccc(CNC(=O)[C@H]2Cc3c([nH]c4ccccc34)[C@H](c3ccc(Cl)cc3)N2)cc1	mL/min/kg	4.4

* * *

measuredOn: Histone deacetylase 1 (Homo sapiens)
methodDescription: Inhibition of HDAC1 (unknown origin) expressed in baculovirus infected in Sf9 cells using RHKKAc as substrate preincubated for 5 to 10 mins followed by substrate addition measured after 2 hrs by fluorescence based assay
Recorded IC50 values for a group of compounds are listed next.

smilesCode	IC50 (nM)
COc1ccc([C@@H]2N[C@@H](C(=O)NCc3ccc(C(=O)NO)cc3)Cc3c2[nH]c2ccccc32)cc1OC	78
COc1ccc(CN2[C@@H](C(=O)NCc3ccc(C(=O)NO)cc3)Cc3c([nH]c4ccccc34)[C@@H]2C2CC2)cc1	171
COc1ccc(CN2[C@@H](C(=O)NCc3ccc(C(=O)NO)cc3)Cc3c([nH]c4ccccc34)[C@@H]2C)cc1	125
COc1ccc([C@H]2N[C@H](C(=O)NCc3ccc(C(=O)NO)cc3)Cc3c2[nH]c2ccccc32)cc1	494
O=C(NO)c1ccc(CNC(=O)[C@H]2Cc3c([nH]c4ccccc34)[C@H](C3CC3)N2Cc2ccc(Cl)cc2)cc1	184
COc1ccc([C@@H]2N[C@@H](C(=O)NCc3ccc(C(=O)NO)cc3)Cc3c2[nH]c2ccccc32)cc1	51.5
COc1ccc(CN2[C@H](C(=O)NCc3ccc(C(=O)NO)cc3)Cc3c([nH]c4ccccc34)[C@H]2C2CC2)cc1	1680
O=C(NO)c1ccc(CNC(=O)[C@H]2Cc3c([nH]c4ccccc34)[C@H](c3ccc(Cl)cc3)N2CC2CC2)cc1	106

* * *

methodDescription: Oral bioavailability in Sprague-Dawley rat at 3 mg/kg by LC-MS/MS analysis
Format: ADME, organism-based
particulars: in vivo

smilesCode	bioavailability
O=C(NO)c1ccc(CNC(=O)[C@H]2Cc3c([nH]c4ccccc34)[C@H](c3ccc(Cl)cc3)N2)cc1	43.8%

* * *

measuredOn: Histone deacetylase 5 (Homo sapiens)
Sequence (Q9UQL6 whole entry): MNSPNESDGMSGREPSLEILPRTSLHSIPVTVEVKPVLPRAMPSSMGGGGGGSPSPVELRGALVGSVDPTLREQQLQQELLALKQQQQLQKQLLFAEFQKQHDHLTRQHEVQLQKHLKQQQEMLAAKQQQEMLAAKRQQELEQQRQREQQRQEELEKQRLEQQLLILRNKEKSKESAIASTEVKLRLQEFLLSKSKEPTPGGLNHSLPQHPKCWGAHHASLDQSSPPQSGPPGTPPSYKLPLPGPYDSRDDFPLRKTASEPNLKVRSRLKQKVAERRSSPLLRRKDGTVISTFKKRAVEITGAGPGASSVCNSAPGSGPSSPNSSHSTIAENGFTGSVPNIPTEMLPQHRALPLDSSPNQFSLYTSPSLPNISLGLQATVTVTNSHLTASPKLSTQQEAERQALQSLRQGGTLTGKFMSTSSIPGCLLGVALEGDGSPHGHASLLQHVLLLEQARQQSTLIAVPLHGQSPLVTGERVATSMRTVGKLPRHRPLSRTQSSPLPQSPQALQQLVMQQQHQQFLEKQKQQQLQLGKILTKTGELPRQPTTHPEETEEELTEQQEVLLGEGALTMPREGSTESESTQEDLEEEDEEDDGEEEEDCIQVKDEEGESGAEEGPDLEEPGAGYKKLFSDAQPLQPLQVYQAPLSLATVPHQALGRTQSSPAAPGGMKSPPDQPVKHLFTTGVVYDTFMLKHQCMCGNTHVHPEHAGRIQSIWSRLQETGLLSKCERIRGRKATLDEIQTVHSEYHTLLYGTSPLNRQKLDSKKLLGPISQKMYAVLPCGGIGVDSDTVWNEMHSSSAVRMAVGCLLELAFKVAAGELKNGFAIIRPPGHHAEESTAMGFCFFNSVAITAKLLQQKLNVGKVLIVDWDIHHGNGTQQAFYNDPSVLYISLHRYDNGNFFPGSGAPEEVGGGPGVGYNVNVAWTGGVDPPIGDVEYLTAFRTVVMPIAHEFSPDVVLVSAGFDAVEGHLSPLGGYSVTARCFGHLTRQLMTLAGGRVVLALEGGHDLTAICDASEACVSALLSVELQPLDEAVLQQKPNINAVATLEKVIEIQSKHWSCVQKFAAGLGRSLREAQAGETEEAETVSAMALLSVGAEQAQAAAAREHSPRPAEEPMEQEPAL
methodDescription: Inhibition of HDAC5 (unknown origin) expressed in baculovirus infected in Sf9 cells using RHKKAc as substrate preincubated for 5 to 10 mins followed by substrate addition measured after 2 hrs by fluorescence based assay

smilesCode	IC50
O=C(NO)c1ccc(CNC(=O)[C@H]2Cc3c([nH]c4ccccc34)[C@H](c3ccc(Cl)cc3)N2)cc1	> 50 µM

* * *

measuredOn: Histone deacetylase 2 (Homo sapiens)
Sequence (Q92769 whole entry): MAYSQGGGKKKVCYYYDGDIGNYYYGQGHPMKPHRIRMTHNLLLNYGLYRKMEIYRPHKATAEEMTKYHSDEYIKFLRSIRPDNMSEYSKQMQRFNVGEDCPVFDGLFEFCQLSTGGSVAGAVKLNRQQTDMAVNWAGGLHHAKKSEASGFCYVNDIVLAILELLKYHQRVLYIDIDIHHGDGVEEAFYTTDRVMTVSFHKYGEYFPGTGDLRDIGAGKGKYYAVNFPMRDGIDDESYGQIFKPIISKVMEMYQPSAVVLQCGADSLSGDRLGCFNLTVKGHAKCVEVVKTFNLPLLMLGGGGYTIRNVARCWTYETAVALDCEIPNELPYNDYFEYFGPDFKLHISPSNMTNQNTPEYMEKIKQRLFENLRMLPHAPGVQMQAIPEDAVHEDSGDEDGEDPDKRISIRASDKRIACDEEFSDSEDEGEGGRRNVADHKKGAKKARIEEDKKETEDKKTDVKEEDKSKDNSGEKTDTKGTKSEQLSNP
Assay type: cell-based, Sf9
pIC50: −log10 of the molar value.
valueType: pIC50

smilesCode	observedMeasurement
O=C(NO)c1ccc(CNC(=O)[C@H]2Cc3c([nH]c4ccccc34)[C@H](c3ccc(Cl)cc3)N2)cc1	7.01

* * *

methodDescription: AUC (0 to infinity) in Sprague-Dawley rat at 0.2 mg/kg, iv by LC-MS/MS analysis
Type: ADME, organism-based
particulars: in vivo
valueType: AUC(0-inf) (µM·h)

smilesCode	valueType	unitsText	observedMeasurement
O=C(NO)c1ccc(CNC(=O)[C@H]2Cc3c([nH]c4ccccc34)[C@H](c3ccc(Cl)cc3)N2)cc1	AUC(0-inf)	µM·h	1.52

* * *

measuredOn: Histone deacetylase 8 (Homo sapiens)
Sequence (Q9BY41 whole entry): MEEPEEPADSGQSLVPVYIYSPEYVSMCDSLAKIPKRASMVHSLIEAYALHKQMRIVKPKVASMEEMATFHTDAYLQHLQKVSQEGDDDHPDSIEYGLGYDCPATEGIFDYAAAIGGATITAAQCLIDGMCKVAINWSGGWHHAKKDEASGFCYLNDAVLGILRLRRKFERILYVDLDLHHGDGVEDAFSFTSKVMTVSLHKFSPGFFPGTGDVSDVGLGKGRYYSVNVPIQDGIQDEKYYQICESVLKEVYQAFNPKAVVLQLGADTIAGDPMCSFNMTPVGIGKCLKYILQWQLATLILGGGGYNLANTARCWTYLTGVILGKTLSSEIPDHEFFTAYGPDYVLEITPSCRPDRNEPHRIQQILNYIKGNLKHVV
methodDescription: Inhibition of HDAC8 (unknown origin) expressed in baculovirus infected in Sf9 cells using RHKKAc as substrate preincubated for 5 to 10 mins followed by substrate addition measured after 2 hrs by fluorescence based assay

smilesCode	IC50 [nM]
O=C(NO)c1ccc(CNC(=O)[C@H]2Cc3c([nH]c4ccccc34)[C@H](c3ccc(Cl)cc3)N2)cc1	292

* * *

methodDescription: Volume of distribution at steady state in Sprague-Dawley rat at 0.2 mg/kg, iv by LC-MS/MS analysis
Type: ADME, organism-based
particulars: in vivo, read-out: Vdss
valueType: Vd

smilesCode	observedMeasurement
O=C(NO)c1ccc(CNC(=O)[C@H]2Cc3c([nH]c4ccccc34)[C@H](c3ccc(Cl)cc3)N2)cc1	0.81 L/kg

* * *

measuredOn: Histone deacetylase 11 (Homo sapiens, UniProt Q96DB2)
Sequence (Q96DB2 whole entry): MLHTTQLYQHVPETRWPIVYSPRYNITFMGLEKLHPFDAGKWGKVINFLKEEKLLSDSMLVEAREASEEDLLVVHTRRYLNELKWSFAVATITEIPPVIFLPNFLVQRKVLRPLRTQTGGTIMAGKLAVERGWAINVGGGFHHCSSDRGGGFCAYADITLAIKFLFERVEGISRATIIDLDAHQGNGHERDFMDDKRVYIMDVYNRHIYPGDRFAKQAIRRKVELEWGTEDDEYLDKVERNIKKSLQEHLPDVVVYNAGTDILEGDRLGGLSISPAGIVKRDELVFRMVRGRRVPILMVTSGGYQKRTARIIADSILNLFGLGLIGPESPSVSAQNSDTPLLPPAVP
methodDescription: Inhibition of HDAC11 (unknown origin) expressed in baculovirus infected in Sf9 cells using RHKKAc as substrate preincubated for 5 to 10 mins followed by substrate addition measured after 2 hrs by fluorescence based assay

smilesCode	unitsText	IC50
O=C(NO)c1ccc(CNC(=O)[C@H]2Cc3c([nH]c4ccccc34)[C@H](c3ccc(Cl)cc3)N2)cc1	µM	2.1

* * *

methodDescription: Tmax in Sprague-Dawley rat at 3 mg/kg, po by LC-MS/MS analysis
Assay type: ADME, organism-based
particulars: in vivo

smilesCode	unitsText	Tmax
O=C(NO)c1ccc(CNC(=O)[C@H]2Cc3c([nH]c4ccccc34)[C@H](c3ccc(Cl)cc3)N2)cc1	h	1.54

* * *

measuredOn: Protein deacetylase HDAC6 (Homo sapiens)
Sequence (Q9UBN7 whole entry): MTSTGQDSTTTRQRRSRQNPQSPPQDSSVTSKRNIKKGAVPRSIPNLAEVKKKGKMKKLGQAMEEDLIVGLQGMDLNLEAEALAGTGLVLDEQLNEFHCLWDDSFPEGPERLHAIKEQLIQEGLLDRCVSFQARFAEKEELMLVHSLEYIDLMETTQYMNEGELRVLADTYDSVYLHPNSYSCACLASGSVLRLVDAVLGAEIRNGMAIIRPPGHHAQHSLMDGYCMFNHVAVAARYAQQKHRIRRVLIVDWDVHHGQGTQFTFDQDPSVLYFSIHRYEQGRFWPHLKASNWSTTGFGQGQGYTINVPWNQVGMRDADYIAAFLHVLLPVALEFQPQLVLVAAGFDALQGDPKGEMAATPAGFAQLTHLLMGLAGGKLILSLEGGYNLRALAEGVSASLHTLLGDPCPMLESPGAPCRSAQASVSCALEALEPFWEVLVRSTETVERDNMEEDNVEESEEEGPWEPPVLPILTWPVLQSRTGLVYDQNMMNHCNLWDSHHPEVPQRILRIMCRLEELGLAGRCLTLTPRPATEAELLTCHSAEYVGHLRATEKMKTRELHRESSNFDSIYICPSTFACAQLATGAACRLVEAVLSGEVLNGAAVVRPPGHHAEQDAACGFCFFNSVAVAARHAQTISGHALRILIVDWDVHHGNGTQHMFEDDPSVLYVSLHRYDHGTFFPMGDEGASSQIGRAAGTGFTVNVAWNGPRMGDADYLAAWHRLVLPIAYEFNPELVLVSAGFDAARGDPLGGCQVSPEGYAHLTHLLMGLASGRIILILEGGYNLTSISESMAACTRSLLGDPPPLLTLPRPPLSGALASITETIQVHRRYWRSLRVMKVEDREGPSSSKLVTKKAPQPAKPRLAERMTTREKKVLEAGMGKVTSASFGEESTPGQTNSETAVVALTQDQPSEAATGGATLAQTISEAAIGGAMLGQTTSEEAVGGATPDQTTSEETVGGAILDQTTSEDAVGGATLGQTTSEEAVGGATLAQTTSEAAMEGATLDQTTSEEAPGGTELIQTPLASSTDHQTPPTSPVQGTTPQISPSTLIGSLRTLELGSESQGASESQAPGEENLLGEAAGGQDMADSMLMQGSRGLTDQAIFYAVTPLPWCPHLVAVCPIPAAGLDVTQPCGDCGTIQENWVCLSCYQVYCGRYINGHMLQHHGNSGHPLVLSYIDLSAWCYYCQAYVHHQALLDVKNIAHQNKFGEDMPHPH
methodDescription: Inhibition of HDAC6 (unknown origin) expressed in baculovirus infected in Sf9 cells using RHKKAc as substrate preincubated for 5 to 10 mins followed by substrate addition measured after 2 hrs by fluorescence based assay
valueType: IC50 (nM)

smilesCode	measuredOn	valueType	unitsText	observedMeasurement
COc1ccc(CN2[C@@H](C(=O)NCc3ccc(C(=O)NO)cc3)Cc3c([nH]c4ccccc34)[C@@H]2C)cc1	Protein deacetylase HDAC6 (Homo sapiens)	IC50	nM	8.84
COc1ccc([C@@H]2N[C@@H](C(=O)NCc3ccc(C(=O)NO)cc3)Cc3c2[nH]c2ccccc32)cc1	Protein deacetylase HDAC6 (Homo sapiens)	IC50	nM	2.34
O=C(NO)c1ccc(CNC(=O)[C@H]2Cc3c([nH]c4ccccc34)[C@H](C3CCCC3)N2)cc1	Protein deacetylase HDAC6 (Homo sapiens)	IC50	nM	2.53
O=C(NO)c1ccc(CNC(=O)[C@H]2Cc3c([nH]c4ccccc34)[C@H](c3ccccc3)N2)cc1	Protein deacetylase HDAC6 (Homo sapiens)	IC50	nM	2.1
O=C(NO)c1ccc(CNC(=O)[C@H]2Cc3c([nH]c4ccccc34)[C@H](C3CC3)N2Cc2ccc(Cl)cc2)cc1	Protein deacetylase HDAC6 (Homo sapiens)	IC50	nM	10.5
COc1ccc([C@H]2N[C@H](C(=O)NCc3ccc(C(=O)NO)cc3)Cc3c2[nH]c2ccccc32)cc1	Protein deacetylase HDAC6 (Homo sapiens)	IC50	nM	3.75
O=C(NO)c1ccc(CNC(=O)[C@H]2Cc3c([nH]c4ccccc34)[C@H](c3ccc(Cl)cc3)N2)cc1	Protein deacetylase HDAC6 (Homo sapiens)	IC50	nM	2.68
O=C(NO)c1ccc(CNC(=O)[C@H]2Cc3c([nH]c4ccccc34)[C@H](C3CC3)N2)cc1	Protein deacetylase HDAC6 (Homo sapiens)	IC50	nM	4.36
